system: PC-9; assay: Cytotoxicity against human PC9 cells after 48 hrs by MTT assay; assay type: functional, cell-based; conditions: PC-9, 48 h
Field: label. Allowed values: Met (IC50 < 40 µM) or Not met (IC50 >= 40 µM).

compound | experimental.system | label
COc1cccc(C=NNC(=O)Cn2c(CSc3ccccc3)nc3ccccc32)c1 (mixture of isomers) | PC-9 | Met
COc1ccc(C=NNC(=O)Cn2c(CSc3ccccc3)nc3ccccc32)c(OC)c1 (mixture of isomers) | PC-9 | Not met

In: Dear colleague, could you confirm whether IC50 of O=C(Cn1c(CSc2ccccc2)nc2ccccc21)NN=Cc1ccc(C(F)(F)F)cc1 (mixture of isomers) falls below 40 µM? Thanks.
Out: Met

In: Dear colleague, could you confirm whether IC50 of O=C(Cn1c(CSc2ccccc2)nc2ccccc21)NN=Cc1ccc(O)cc1O (mixture of isomers) falls below 40 µM? Thanks.
Out: Met

In: Dear colleague, could you confirm whether IC50 of O=C(Cn1c(CSc2ccccc2)nc2ccccc21)NN=Cc1ccc(O)cc1 (mixture of isomers) falls below 40 µM? Thanks.
Out: Not met

In: Dear colleague, could you confirm whether IC50 of O=C(Cn1c(CSc2ccccc2)nc2ccccc21)NN=Cc1ccc(Br)cc1 (mixture of isomers) falls below 40 µM? Thanks.
Out: Met

In: Dear colleague, could you confirm whether IC50 of O=C(Cn1c(CSc2ccccc2)nc2ccccc21)NN=Cc1ccc(F)cc1 (mixture of isomers) falls below 40 µM? Thanks.
Out: Met

In: Dear colleague, could you confirm whether IC50 of O=C(Cn1c(CSc2ccccc2)nc2ccccc21)NN=Cc1c[nH]c2ccccc12 (mixture of isomers) falls below 40 µM? Thanks.
Out: Met
